- experimental-system: KLK5 (Homo sapiens)
- test: KLK5 enzyme inhibition assay, fluorogenic substrate Boc-Val-Pro-Arg-AMC
- Format: biochemical
- recorded-conditions: Table A; 37° C., 15 min of incubation, pH 8; read-out: IC50 (μM) KLK5
Collected IC50 values appear next to each entry.

Sample records with IC50:
| query-smiles | reported |
| --- | --- |
| NCc1ccc2oc(=O)c(C(=O)Oc3ccccc3)cc2c1 | 182 µM |
| NC(=O)c1cccc(OC(=O)c2cc3cc(CCl)ccc3oc2=O)c1 | 21.6 µM |
| O=C(Oc1ccccc1[N+](=O)[O-])c1cc2cc(CCl)ccc2oc1=O | 112 µM |
| O=C(Oc1cc(Cl)ccc1Cl)c1cc2cc(CCl)ccc2oc1=O | 1.3 µM |

Return reported IC50; argument: COC(=O)c1ccccc1OC(=O)c1cc2cc(CCl)ccc2oc1=O
26.3 µM

====

Collected IC50 values appear next to each entry.
- experimental-system: KLK5 (Homo sapiens, UniProt Q9Y337)
- Sequence (Q9Y337 23-293): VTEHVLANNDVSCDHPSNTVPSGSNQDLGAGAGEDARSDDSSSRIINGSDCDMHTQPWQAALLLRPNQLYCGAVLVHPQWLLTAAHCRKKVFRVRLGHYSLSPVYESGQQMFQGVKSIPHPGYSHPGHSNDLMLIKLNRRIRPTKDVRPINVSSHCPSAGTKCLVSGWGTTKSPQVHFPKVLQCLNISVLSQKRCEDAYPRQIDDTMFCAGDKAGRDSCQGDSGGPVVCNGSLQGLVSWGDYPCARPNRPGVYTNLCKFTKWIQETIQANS
- test: KLK5 enzyme inhibition assay, fluorogenic substrate Boc-Val-Pro-Arg-AMC
- Format: biochemical
- recorded-conditions: Table A; 37° C., 15 min of incubation, pH 8; read-out: IC50 (μM) KLK5
State just the number; it will be interpreted in µM.

| query-smiles | units | reported |
| --- | --- | --- |
| COC(=O)c1cc2cc(CCl)ccc2oc1=O | µM | 54 |
| O=C(Oc1cc(Cl)cc(Cl)c1)c1cc2cc(CCl)ccc2oc1=O | µM | 80 |
| O=C(Oc1c(Cl)cccc1Cl)c1cc2cc(CCl)ccc2oc1=O | µM | 59 |

Return reported IC50; argument: O=C(O)c1ccc(Cl)cc1OC(=O)c1cc2cc(CCl)ccc2oc1=O
36.9

What about this compound? Cc1ccc2oc(=O)c(C(=O)Oc3cc(F)ccc3[N+](=O)[O-])cc2c1
44

What about this compound? O=C(Oc1cc([N+](=O)[O-])ccc1[N+](=O)[O-])c1cc2cc(CCl)ccc2oc1=O
121

What about this compound? O=C(Oc1nccc2ccccc12)c1cc2ccccc2oc1=O
7

====

Collected inhibition at 50 µM values appear next to each entry.
- experimental-system: KLK5 (Homo sapiens, UniProt Q9Y337)
- test: KLK5 enzyme inhibition assay, fluorogenic substrate Boc-Val-Pro-Arg-AMC
- Assay type: biochemical
- recorded-conditions: 50 μM; 37° C., 15 min of incubation, pH 8
State just the number; it will be interpreted in %.

Sample records with inhibition at 50 µM:
| query-smiles | units | reported |
| --- | --- | --- |
| O=C(Oc1ccccc1)c1cc2cc(CBr)ccc2oc1=O | % | 34 |
| O=C(Oc1cccc(Br)c1)c1cc2cc(CCl)ccc2oc1=O | % | 34 |
| CC(=O)OCc1ccc2oc(=O)c(C(=O)Oc3cccc(Br)c3)cc2c1 | % | 22 |

Field: next molecule
Return reported inhibition at 50 µM; argument: O=C(Oc1ccccc1)c1cc2cc(CO)ccc2oc1=O
25

====

- experimental-system: KLK14 (Homo sapiens)
- test: KLK14 enzyme inhibition assay, fluorogenic substrate Boc-Val-Pro-Arg-AMC
- Format: biochemical
- recorded-conditions: Table A; 37° C., 15 min of incubation, pH 8; read-out: IC50 (μM) KLK14
Collected IC50 values appear next to each entry.
State just the number; it will be interpreted in µM.

Sample records with IC50:
| query-smiles | units | IC50 |
| --- | --- | --- |
| O=C(Oc1cc(F)ccc1F)c1cc2cc(CCl)ccc2oc1=O | µM | 39 |
| COC(=O)c1ccccc1OC(=O)c1cc2cc(CCl)ccc2oc1=O | µM | 38 |
| O=C(Oc1cc(Cl)ccc1Cl)c1cc2cc(CCl)ccc2oc1=O | µM | 54 |

Field: next molecule
Field: IC50 (KLK14 (Homo sapiens)). Entry: NC(=O)c1cccc(OC(=O)c2cc3cc(CCl)ccc3oc2=O)c1
30

====

- experimental-system: KLK14 (Homo sapiens, UniProt Q9P0G3)
- Sequence (Q9P0G3 25-251): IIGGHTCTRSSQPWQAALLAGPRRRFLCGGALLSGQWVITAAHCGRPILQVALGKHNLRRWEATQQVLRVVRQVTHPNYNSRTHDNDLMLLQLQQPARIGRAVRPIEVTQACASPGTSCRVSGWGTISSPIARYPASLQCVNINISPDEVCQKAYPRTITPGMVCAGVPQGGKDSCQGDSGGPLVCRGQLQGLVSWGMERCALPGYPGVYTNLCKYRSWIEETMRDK
- test: KLK14 enzyme inhibition assay, fluorogenic substrate Boc-Val-Pro-Arg-AMC
- Type: biochemical
- recorded-conditions: 50 μM; 37° C., 15 min of incubation, pH 8
Collected inhibition at 50 µM values appear next to each entry.
State just the number; it will be interpreted in %.

| query-smiles | experimental-system | inhibition at 50 µM, % |
| --- | --- | --- |
| CC(=O)OCc1ccc2oc(=O)c(C(=O)Oc3ccccc3Cl)cc2c1 | KLK14 (Homo sapiens, UniProt Q9P0G3) | 27 |
| NCc1ccc2oc(=O)c(C(=O)Oc3cccc(Br)c3)cc2c1 | KLK14 (Homo sapiens, UniProt Q9P0G3) | 32 |
| CS(=O)(=O)NCc1ccc2oc(=O)c(C(=O)Oc3cccc(Cl)c3)cc2c1 | KLK14 (Homo sapiens, UniProt Q9P0G3) | 42 |
| CC(=O)OCc1ccc2oc(=O)c(C(=O)Oc3cc(F)ccc3Br)cc2c1 | KLK14 (Homo sapiens, UniProt Q9P0G3) | 50 |
| CC(=O)OCc1ccc2oc(=O)c(C(=O)Oc3ccccc3C#N)cc2c1 | KLK14 (Homo sapiens, UniProt Q9P0G3) | 27 |

Return reported inhibition at 50 µM; argument: O=C(Oc1ccccc1)c1cc2cc(CO)ccc2oc1=O
32

What about this compound? CC(=O)OCc1ccc2oc(=O)c(C(=O)Oc3cc(Cl)ccc3Cl)cc2c1
60

What about this compound? O=C(Oc1ccccc1)c1cc2cc(CBr)ccc2oc1=O
53

What about this compound? O=C(Oc1ccccc1)c1cc2cc(O)c(O)cc2oc1=O
85

What about this compound? O=C(Oc1cccc(F)c1)c1cc2cc(CBr)ccc2oc1=O
48

====

Collected inhibition at 100 µM values appear next to each entry.
- experimental-system: KLK7 (Homo sapiens)
- Sequence (P49862 30-253): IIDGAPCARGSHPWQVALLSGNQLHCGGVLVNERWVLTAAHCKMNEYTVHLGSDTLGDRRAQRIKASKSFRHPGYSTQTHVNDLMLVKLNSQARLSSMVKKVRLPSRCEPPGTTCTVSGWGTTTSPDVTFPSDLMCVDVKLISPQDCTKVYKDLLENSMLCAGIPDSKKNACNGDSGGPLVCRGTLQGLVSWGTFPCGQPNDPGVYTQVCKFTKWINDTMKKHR
- test: KLK7 enzyme inhibition assay, fluorogenic substrate Suc-Leu-Leu-Val-Tyr-AMC
- Format: biochemical
- recorded-conditions: 100 μM; 37° C., 15 min of incubation, pH 8
State just the number; it will be interpreted in %.

| compound | experimental-system | measurement-label | units | reported |
| --- | --- | --- | --- | --- |
| COC(=O)c1ccc(OC(=O)c2cc3cc(CCl)ccc3oc2=O)cc1 [IK13] | KLK7 (Homo sapiens) | inhibition at 100 µM | % | 34 |
| O=C(Oc1cc([N+](=O)[O-])ccc1[N+](=O)[O-])c1cc2cc(CCl)ccc2oc1=O [CFL21] | KLK7 (Homo sapiens) | inhibition at 100 µM | % | 22 |
| CCOC(=O)c1cc2cc(C)ccc2oc1=O [Compound D5] | KLK7 (Homo sapiens) | inhibition at 100 µM | % | 61 |
| CCC(=O)OCc1ccc2oc(=O)c(C(=O)Oc3cncc(Cl)c3)cc2c1 [LP42] | KLK7 (Homo sapiens) | inhibition at 100 µM | % | 52 |
| O=C(O)c1ccccc1OC(=O)c1cc2cc(CCl)ccc2oc1=O [IK11] | KLK7 (Homo sapiens) | inhibition at 100 µM | % | 63 |

Return reported inhibition at 100 µM; argument: O=C(Oc1cc(F)ccc1F)c1cc2ccccc2oc1=O [CFL7]
33

What about this compound? CCOC(=O)c1cc2cc(COC(C)=O)ccc2oc1=O [LP43]
30

What about this compound? CC(=O)OCc1ccc2oc(=O)c(C(=O)Oc3cc(F)ccc3Br)cc2c1 [CFL17]
33

What about this compound? Cc1cc(OC(=O)c2cc3cc(CCl)ccc3oc2=O)ccc1Cl [MFS35]
55
